Molecular target: human Claudin-6 (CLDN6) (human) (UniProt P56747)
Experiment: FACS, limiting dilution, UMUC4 cells
Catalogue of FACS signal at 40 nM values
# answer = number (no unit)

For orientation, consider the following solved cases.
AB S2 (antibody, V domains shown) VH: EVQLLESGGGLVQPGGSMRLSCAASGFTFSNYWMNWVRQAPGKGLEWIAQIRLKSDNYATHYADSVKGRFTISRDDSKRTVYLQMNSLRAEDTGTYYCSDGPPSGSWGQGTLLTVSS VL: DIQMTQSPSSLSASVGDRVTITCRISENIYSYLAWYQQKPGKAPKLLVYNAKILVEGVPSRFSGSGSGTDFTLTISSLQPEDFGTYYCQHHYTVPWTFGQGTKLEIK: 6970
AB3-7 (antibody, V domains shown, humanized; also called AB23; humanized AB3-7) VH: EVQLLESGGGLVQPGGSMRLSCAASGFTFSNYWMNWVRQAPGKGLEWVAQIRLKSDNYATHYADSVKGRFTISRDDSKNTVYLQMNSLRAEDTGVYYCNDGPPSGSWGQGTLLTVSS VL: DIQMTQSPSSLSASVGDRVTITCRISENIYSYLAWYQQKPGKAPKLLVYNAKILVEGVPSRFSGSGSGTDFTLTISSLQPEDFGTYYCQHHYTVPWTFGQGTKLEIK: 1120
AB S1 (antibody, V domains shown) VH: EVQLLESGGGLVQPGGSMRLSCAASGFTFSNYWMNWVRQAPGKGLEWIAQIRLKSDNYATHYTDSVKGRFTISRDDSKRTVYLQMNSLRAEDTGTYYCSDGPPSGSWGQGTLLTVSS VL: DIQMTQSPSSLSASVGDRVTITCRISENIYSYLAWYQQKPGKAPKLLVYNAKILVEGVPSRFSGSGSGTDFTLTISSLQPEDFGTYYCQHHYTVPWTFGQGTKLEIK: 6680
AB S8 (antibody, V domains shown) VH: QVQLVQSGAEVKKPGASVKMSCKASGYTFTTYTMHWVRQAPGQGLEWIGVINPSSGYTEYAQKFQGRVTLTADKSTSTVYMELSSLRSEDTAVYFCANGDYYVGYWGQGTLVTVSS VL: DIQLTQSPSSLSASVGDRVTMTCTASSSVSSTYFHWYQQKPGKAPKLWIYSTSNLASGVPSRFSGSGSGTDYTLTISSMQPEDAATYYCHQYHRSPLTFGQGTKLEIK: 16600

Here's the next entry for you.
Input line: Find the measured FACS signal at 40 nM of AB S5 (antibody, V domains shown) VH: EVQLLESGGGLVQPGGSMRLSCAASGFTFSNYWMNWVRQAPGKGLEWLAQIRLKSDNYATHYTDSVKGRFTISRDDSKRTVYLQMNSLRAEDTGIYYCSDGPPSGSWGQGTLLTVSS VL: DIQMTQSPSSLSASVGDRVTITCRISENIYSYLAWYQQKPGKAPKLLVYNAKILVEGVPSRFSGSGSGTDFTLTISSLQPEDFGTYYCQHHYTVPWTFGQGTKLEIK and report it.
Output line: 7080
